System: UO-31
Assay: Cancer cell line growth inhibition, CellTiter-Glo (Example 3)
Assay type: cell-based
Conditions: Homo sapiens, Renal, 72 hours, read-out: growth inhibition of various human cancer cell lines
pIC50: −log10 of the molar value.
Item-by-item account of pIC50
property_label: pIC50

smiles_input | number
Nc1ccccc1NC(=O)CCCCCNC(=O)c1cc2ccccc2[nH]1 | 5.12
Nc1ccccc1NC(=O)CCCCCNC(=O)c1ccc(-c2ccccc2)o1 | 5.02
Nc1ccccc1NC(=O)CCCCCCNC(=O)c1cc2ccccc2[nH]1 | 5.18

* * *

Test system: OVCAR-5
Experiment: Cancer cell line growth inhibition, CellTiter-Glo (Example 3)
Assay type: cell-based
Settings: Homo sapiens, Ovarian, 72 hours, read-out: growth inhibition of various human cancer cell lines
pIC50: −log10 of the molar value.
Item-by-item account of pIC50

molecule | system | pIC50
Nc1ccccc1NC(=O)CCCCCNC(=O)c1ccc(-c2ccccc2)o1 [YT88] | OVCAR-5 | 5.25
Nc1ccccc1NC(=O)CCCCCNC(=O)c1cc2ccccc2[nH]1 [YT86] | OVCAR-5 | 5.22
Nc1ccccc1NC(=O)CCCCCCNC(=O)c1cc2ccccc2[nH]1 [YT128] | OVCAR-5 | 5.16

* * *

System: SK-MEL-5
Assay: Cancer cell line growth inhibition, CellTiter-Glo (Example 3)
Type: cell-based
Settings: Homo sapiens, Melanoma, 72 hours
pIC50: −log10 of the molar value.

compound | system | pIC50
Nc1ccccc1NC(=O)CCCCCC(=O)Nc1cccc(Br)c1 [YT30] | SK-MEL-5 | 5.41

* * *

Tested on: HL60
Assay: Cancer cell line growth inhibition, CellTiter-Glo (Example 3)
Type: cell-based
Conditions: Homo sapiens, HL-60, Leukemia, 72 hours, read-out: IC50

smiles_input | IC50 / nM
Nc1ccccc1NC(=O)CCCCCC(=O)Nc1cccc(Br)c1 | 1040

* * *

Test system: HL60
Test: Leukemia cell growth inhibition, CellTiter-Glo (Example 1)
Type: cell-based, human
Conditions: Homo sapiens, HL-60; HL60, AML (subtype APL); 72 hours
property_label: IC50 (nM)

smiles_input | property_label | result_units | number
Nc1ccccc1NC(=O)CCCCCC(=O)Nc1cccc(Br)c1 | IC50 | nM | 1040

* * *

System: TK-10
Assay: Cancer cell line growth inhibition, CellTiter-Glo (Example 3)
Format: cell-based
Conditions: Homo sapiens, Renal, 72 hours, read-out: growth inhibition of various human cancer cell lines
Procedure: YT30 was tested for growth inhibition against 67 human cancer cell lines derived from diverse tissues including the National Cancer Institute human cancer cell lines (NCI-60). […] Cells in different wells were treated with various concentrations of YT30, YT86, YT88, or YT128. […] Cell viabilities were determined by the CellTiter-Glo Luminescence Cell Viability assay kit (Promega Corporation, Madison, Wis.) according to manufacturer's protocol.
Item-by-item account of IC50

molecule | result_units | IC50
Nc1ccccc1NC(=O)CCCCCCNC(=O)c1cc2ccccc2[nH]1 [YT128] | µM | 12.1
Nc1ccccc1NC(=O)CCCCCNC(=O)c1ccc(-c2ccccc2)o1 [YT88] | µM | 13.4
Nc1ccccc1NC(=O)CCCCCNC(=O)c1cc2ccccc2[nH]1 [YT86] | µM | 17.2

Data origin, for the record: patent US20150374646A1
